// data source = patent US20110281812A1

Quick list: inhibition at 50 µM per entry.
System: IL-6 production in LPS-stimulated murine spleenocytes
PROCEDURE SUMMARY: Inhibition of IL-6 production in LPS-stimulated murine spleenocytes in vitro
Format: cell-based
MEASUREMENT SETUP: Mus musculus, 50 μM concentration of the compound, read-out: inhibition of interleukin-6 (IL-6) production

{"COMPOUND": "CC[C@H]1OC(=O)[C@H](C)[C@@H](O[C@H]2C[C@@](C)(OC)[C@@H](O)[C@H](C)O2)[C@H](C)[C@@H](O[C@@H]2O[C@H](C)C[C@H](N(C)C)[C@H]2OCCCNC(=O)c2cc(O)ccc2O)[C@](C)(O)C[C@@H](C)CN(C)[C@H](C)[C@@H](O)[C@]1(C)O [Example 32]", "inhibition at 50 µM": "> 40%"}
{"COMPOUND": "CC[C@H]1OC(=O)[C@H](C)[C@@H](O[C@H]2C[C@@](C)(OC)[C@@H](O)[C@H](C)O2)[C@H](C)[C@@H](O[C@@H]2O[C@H](C)C[C@H](N(C)C)[C@H]2OCCCNC(=O)CCCC(=O)OC)[C@](C)(O)C[C@@H](C)CN(C)[C@H](C)[C@@H](O)[C@]1(C)O [Example 14]", "inhibition at 50 µM": "> 40%"}
{"COMPOUND": "CC[C@H]1OC(=O)[C@H](C)[C@@H](O[C@H]2C[C@@](C)(OC)[C@@H](O)[C@H](C)O2)[C@H](C)[C@@H](O[C@@H]2O[C@H](C)C[C@H](N(C)C)[C@H]2OCCCNC(=O)c2cccnc2Cl)[C@](C)(O)C[C@@H](C)CN(C)[C@H](C)[C@@H](O)[C@]1(C)O [Example 34]", "inhibition at 50 µM": "> 40%"}
{"COMPOUND": "CC[C@H]1OC(=O)[C@H](C)[C@@H](O[C@H]2C[C@@](C)(OC)[C@@H](O)[C@H](C)O2)[C@H](C)[C@@H](O[C@@H]2O[C@H](C)C[C@H](N(C)C)[C@H]2OCCCNC(=O)C(C)C)[C@](C)(O)C[C@@H](C)CN(C)[C@H](C)[C@@H](O)[C@]1(C)O [Example 3]", "inhibition at 50 µM": "> 40%"}
{"COMPOUND": "CC[C@H]1OC(=O)[C@H](C)[C@@H](O[C@H]2C[C@@](C)(OC)[C@@H](O)[C@H](C)O2)[C@H](C)[C@@H](O[C@@H]2O[C@H](C)C[C@H](N(C)C)[C@H]2OCCCNC(=O)c2ccoc2)[C@](C)(O)C[C@@H](C)CN(C)[C@H](C)[C@@H](O)[C@]1(C)O [Example 17]", "inhibition at 50 µM": "> 40%"}

Then there is this compound:
Task item: Quick check: inhibition at 50 µM of CC[C@H]1OC(=O)[C@H](C)[C@@H](O[C@H]2C[C@@](C)(OC)[C@@H](O)[C@H](C)O2)[C@H](C)[C@@H](O[C@@H]2O[C@H](C)C[C@H](N(C)C)[C@H]2OCCCNC(=O)c2c(C)nn(C)c2C)[C@](C)(O)C[C@@H](C)CN(C)[C@H](C)[C@@H](O)[C@]1(C)O [Example 19] ?
Reply: > 40%

* * *

Test system: male BALB/cJ mice
PROCEDURE SUMMARY: Lung neutrophilia induced by bacterial lipopolysaccharide in male BALB/cJ mice - Method B
Assay type: in vivo
MEASUREMENT SETUP: Mus musculus, ip, 24 h, single dose of 100 mg/kg i.p., vs LPS challenged untreated animals, read-out: inhibition of total cell number in BALF
Procedure: For intraperitoneal administration (i.p.) compounds were dissolved in a final concentration of 10 mg/mL. […] Male BALB/cJ mice (Charles River, Germany), with an average weight of ˜25 g were randomly grouped (n=8 in testing group, 10 in positive control and 6-8 in negative control). […] In some experiments neutrophil levels in BALF were assessed by measurement of concentration of a neutrophil-specific enzyme myeloperoxidase (MPO). […]
MEASURE NAME: inhibition in vivo at 100 mg/kg

{"STRUCTURE": "CC[C@H]1OC(=O)[C@H](C)[C@@H](O[C@H]2C[C@@](C)(OC)[C@@H](O)[C@H](C)O2)[C@H](C)[C@@H](O[C@@H]2O[C@H](C)C[C@H](N(C)C)[C@H]2OCCCNC(=O)C2CCC2)[C@](C)(O)C[C@@H](C)CN(C)[C@H](C)[C@@H](O)[C@]1(C)O", "inhibition in vivo at 100 mg/kg": "> 30%"}
{"STRUCTURE": "CC[C@H]1OC(=O)[C@H](C)[C@@H](O[C@H]2C[C@@](C)(OC)[C@@H](O)[C@H](C)O2)[C@H](C)[C@@H](O[C@@H]2O[C@H](C)C[C@H](N(C)C)[C@H]2OCCCNC(=O)c2cnc(C)cn2)[C@](C)(O)C[C@@H](C)CN(C)[C@H](C)[C@@H](O)[C@]1(C)O", "inhibition in vivo at 100 mg/kg": "> 50%"}
{"STRUCTURE": "CC[C@H]1OC(=O)[C@H](C)[C@@H](O[C@H]2C[C@@](C)(OC)[C@@H](O)[C@H](C)O2)[C@H](C)[C@@H](O[C@@H]2O[C@H](C)C[C@H](N(C)C)[C@H]2OCCCNC(=O)COC)[C@](C)(O)C[C@@H](C)CN(C)[C@H](C)[C@@H](O)[C@]1(C)O", "inhibition in vivo at 100 mg/kg": "> 50%"}
{"STRUCTURE": "CC[C@H]1OC(=O)[C@H](C)[C@@H](O[C@H]2C[C@@](C)(OC)[C@@H](O)[C@H](C)O2)[C@H](C)[C@@H](O[C@@H]2O[C@H](C)C[C@H](N(C)C)[C@H]2OCCCNC(=O)c2ccoc2)[C@](C)(O)C[C@@H](C)CN(C)[C@H](C)[C@@H](O)[C@]1(C)O", "inhibition in vivo at 100 mg/kg": "> 50%"}
{"STRUCTURE": "CC[C@H]1OC(=O)[C@H](C)[C@@H](O[C@H]2C[C@@](C)(OC)[C@@H](O)[C@H](C)O2)[C@H](C)[C@@H](O[C@@H]2O[C@H](C)C[C@H](N(C)C)[C@H]2OCCCNC(=O)CCC(=O)OC)[C@](C)(O)C[C@@H](C)CN(C)[C@H](C)[C@@H](O)[C@]1(C)O", "inhibition in vivo at 100 mg/kg": "> 50%"}

Task item: Quick check: inhibition in vivo at 100 mg/kg of CC[C@H]1OC(=O)[C@H](C)[C@@H](O[C@H]2C[C@@](C)(OC)[C@@H](O)[C@H](C)O2)[C@H](C)[C@@H](O[C@@H]2O[C@H](C)C[C@H](N(C)C)[C@H]2OCCCNC(=O)c2c(C)nn(C)c2C)[C@](C)(O)C[C@@H](C)CN(C)[C@H](C)[C@@H](O)[C@]1(C)O ?
Reply: > 50%

Task item: Quick check: inhibition in vivo at 100 mg/kg of CC[C@H]1OC(=O)[C@H](C)[C@@H](O[C@H]2C[C@@](C)(OC)[C@@H](O)[C@H](C)O2)[C@H](C)[C@@H](O[C@@H]2O[C@H](C)C[C@H](N(C)C)[C@H]2OCCCNC(=O)CN(C)C)[C@](C)(O)C[C@@H](C)CN(C)[C@H](C)[C@@H](O)[C@]1(C)O ?
Reply: > 30%

* * *

Quick list: inhibition in vivo at 100 mg/kg per entry.
Test system: male BALB/cJ mice
PROCEDURE SUMMARY: Lung neutrophilia induced by bacterial lipopolysaccharide in male BALB/cJ mice - Method B
Assay type: in vivo
MEASUREMENT SETUP: Mus musculus, ip, 24 h, single dose of 100 mg/kg i.p., vs LPS challenged untreated animals, read-out: inhibition of total cell number in BALF

Previously resolved entries follow.
{"STRUCTURE": "CC[C@H]1OC(=O)[C@H](C)[C@@H](O[C@H]2C[C@@](C)(OC)[C@@H](O)[C@H](C)O2)[C@H](C)[C@@H](O[C@@H]2O[C@H](C)C[C@H](N(C)C)[C@H]2OCCCNC(=O)CCCC(=O)OC)[C@](C)(O)C[C@@H](C)CN(C)[C@H](C)[C@@H](O)[C@]1(C)O", "inhibition in vivo at 100 mg/kg": "> 30%"}
{"STRUCTURE": "CC[C@H]1OC(=O)[C@H](C)[C@@H](O[C@H]2C[C@@](C)(OC)[C@@H](O)[C@H](C)O2)[C@H](C)[C@@H](O[C@@H]2O[C@H](C)C[C@H](N(C)C)[C@H]2OCCCNC(=O)C2CCOCC2)[C@](C)(O)C[C@@H](C)CN(C)[C@H](C)[C@@H](O)[C@]1(C)O", "inhibition in vivo at 100 mg/kg": "> 50%"}
{"STRUCTURE": "CC[C@H]1OC(=O)[C@H](C)[C@@H](O[C@H]2C[C@@](C)(OC)[C@@H](O)[C@H](C)O2)[C@H](C)[C@@H](O[C@@H]2O[C@H](C)C[C@H](N(C)C)[C@H]2OCCCNC(=O)c2cccnc2)[C@](C)(O)C[C@@H](C)CN(C)[C@H](C)[C@@H](O)[C@]1(C)O", "inhibition in vivo at 100 mg/kg": "> 30%"}

Task item: Hi! What's the reported inhibition in vivo at 100 mg/kg for CCOCC(=O)NCCCO[C@H]1[C@H](O[C@@H]2[C@@H](C)[C@H](O[C@H]3C[C@@](C)(OC)[C@@H](O)[C@H](C)O3)[C@@H](C)C(=O)O[C@H](CC)[C@@](C)(O)[C@H](O)[C@@H](C)N(C)C[C@H](C)C[C@@]2(C)O)O[C@H](C)C[C@@H]1N(C)C on male BALB/cJ mice?
Reply: > 50%
